biological target: T1, murine pro-myostatin (mouse, UniProt O08689 25-376, biotinylated (in the SPR assay)); test: SPR Biacore 8K, biotin-antigen captured
T1 construct: also called proGDF8 (mouse); mouse pro-myostatin
Exercise: for every item that follows, state its recorded pKd.
# reply with the number alone; pKd is -log10 of concentration in mol/L

Q: Please give the documented pKd of Ab101 (antibody, human IgG4 S228P, kappa, V domains shown) VH: EVQLVESGGGLVQPGGSLRLSCAASGSAFSSYGMSWVRQAPGKGLELVASINSNGGSTYYPDSVKGRFTISRDNAKNSLYLQMNSLRAEDTAVYYCARDLLVRFLEWSHYYGMDVWGQGTTVTVSS VL: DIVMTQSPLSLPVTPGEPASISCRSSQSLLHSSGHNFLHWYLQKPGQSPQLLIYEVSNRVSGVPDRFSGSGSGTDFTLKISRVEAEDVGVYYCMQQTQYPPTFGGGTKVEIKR
Result: 10.08

Q: State its pKd: Ab124 (antibody, human IgG4 S228P, kappa, V domains shown) VH: QVQLQESGPGLVKPSQTLSLTCTVSGGSISSSPYSWSWIRQPPGKGLEWIGYVDLAGSTDYNPSLKSRVTMSVDTSKNQFSLKVNSVTAADTAVYYCARALSSRSSEWLLDQYTMDVWGQGTTVTVSS VL: EIVMTQSPATLSLSPGERATLSCRASQSIGINLAWYQQKPGQAPRLLIYGVSNRATGIPARFSGSGSGTDFTLTISSLEPEDFAVYYCQQYGTARLTFGGGTKVEIKR
Result: 8.49

Q: Please report pKd for the following binder: Ab141 (antibody, human IgG4 S228P, kappa, V domains shown) VH: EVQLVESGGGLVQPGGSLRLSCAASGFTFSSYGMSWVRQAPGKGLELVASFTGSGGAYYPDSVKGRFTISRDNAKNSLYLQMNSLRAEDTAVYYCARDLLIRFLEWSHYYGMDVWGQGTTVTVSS VL: DIVMTQSPLSLPVTPGEPASISCRSSQSLLHSSGHNFLHWYLQKPGQSPQLLIYEVSNRVSGVPDRFSGSGSGTDFTLKISRVEAEDVGVYYCMQQTQYPGTFGGGTKVEIKR
Result: 10.27

// data source = patent US20260209325A1
